System: TK-10 renal
assay method text: NCI-60 one-dose screen, 48 h
stated conditions: 10 µM unless noted
Compounds without any hit were thinned out: in the full panel of roughly 83,000, 20% have a hit. Active and inactive are the calls of the source. The calls were made as follows: active = growth percent below 10; inactive = the rest.
Parameter call: string, one of t = active, f = inactive

Here's what some known entries look like.
- compound: "C=CCn1c(SCC(=O)Nc2ccc(C(=O)/C=C/c3ccc(C)cc3)cc2)nnc1-c1c[nH]c2ccccc12"
  answer label: "f"
- compound: "C#CC(=O)N(c1ccc(OC)cc1OC)C(C(=O)NCC(=O)OCC)c1cccs1 (stereo not given)"
  answer label: "f"
- compound: "Cn1ccnc1C(=O)/C=C/C=C/c1ccc(C(=O)Nc2ccc(F)cc2)cc1"
  answer label: "f"
- compound: "Nc1nc(Nc2ccccc2SSc2ccccc2Nc2nc(N)nc(-c3ccc4ccccc4c3)n2)nc(-c2ccc3ccccc3c2)n1"
  answer label: "f"
- compound: "COc1ccc2c(c1)c(CC(=O)[Se]CCC#N)c(C)n2C(=O)c1ccc(Cl)cc1"
  answer label: "t"
- compound: "NC(N)=Nc1ccc(Oc2cccc(NC(N)=Nc3ccc(Cl)c(C(F)(F)F)c3)c2)cn1"
  answer label: "f"

Q: What outcome does the record of this test show for "COc1ccc(C(=O)Nc2ncc(Cc3ccccc3Cl)s2)cc1" ?
Result: f

Q: Could you please tell me the result logged for "NC(N)=Nc1ccc(Oc2cccc(NC(N)=Nc3ccc(Cl)c(C(F)(F)F)c3)c2)cc1" in this assay?
Result: f

Q: What was the test verdict on COC(=O)C(Cc1ccccc1)Nc1nc(NC(Cc2ccccc2)C(=O)OC)nc(N2CCOCC2)n1 (stereo not given) ?
Result: f

Q: Dear colleague, could you share the recorded outcome for COc1ccc(C2CC(c3ccc(Nc4nc(NCCO)nc(N5CCOCC5)n4)cc3)=Nc3c(N)nc(N)nc3N2)cc1 (stereo not given) when you have a moment?
Result: f

###

Tested on: K-562 leukemia
assay method text: NCI-60 one-dose screen, 48 h (100 = growth as untreated, 0 = no growth, -100 = all killed)
stated conditions: 10 µM unless noted
Experimental: Cells are grown in 96 well plates and exposed to the test compound for 48 hours. Compounds are tested at a single concentration, which is 10^-5 M for most compounds. The reported endpoint is percent growth (GI% or GIPRCNT), where numbers from 0 - 100% represent growth inhibition, and numbers from -100% - 0 represent cell death. For example, a value of 40 represents 60% growth inhibition. A value of 0 means no net growth occurred over the course of the experiment. […]
The panel holds about 83,000 compounds, 20% with a hit somewhere; the sample as a whole holds those more often.
So basically: is growth under 50%? Then TRUE. Not under? Then FALSE.

- compound: "NC(=O)c1cccc(-n2ccc3cc(NC(=O)Nc4ccc(N5CCOCC5)c(C(F)(F)F)c4)ccc32)n1"
  target system: "K-562 leukemia"
  answer label: "TRUE"
- compound: "CCO/C=N/C1=C(C#N)C(c2ccc(F)cc2)c2sc3c(CC)cccc3c2O1 (centres undefined)"
  target system: "K-562 leukemia"
  answer label: "TRUE"
- compound: "C#CCNC1CCC(c2csc(C#C)n2)=C1C (centres undefined)"
  target system: "K-562 leukemia"
  answer label: "FALSE"

Q: Input "Cc1ccc(-c2cc3nc(C(Cl)Cl)nc(-c4ccco4)n3n2)cc1" ; condition: growth strictly below 50%. Does it hold?
Result: FALSE

Q: Given "COc1cc(/C=C/C(=O)c2ccc(NC(=O)CSc3nnc(-c4ccc(-c5nc6ccc(Cl)cc6[nH]5)cc4)o3)cc2)cc(OC)c1OC" , is recorded growth strictly lower than 50%?
Result: FALSE

Q: Threshold test, growth < 50%: "Cn1cc(-c2nc(N)nnc2-c2c[nH]c3ccc(Br)cc23)c2cc(Br)ccc21"
Result: TRUE

Q: Determine whether this compound shows growth lower than 50% (ties excluded): CCO/C=N/C1=C(C#N)C(c2ccc(Cl)cc2)c2sc3c(CC)cccc3c2O1 (centres undefined)
Result: TRUE

Q: Bench note: check whether "O=C(NCc1ncc[nH]1)c1ccc(-c2nc3ccc4[nH]ncc4c3c3c2CCCC3)cc1" shows growth below 50%
Result: TRUE

Q: Here's an entry: "O=C(CN1CCN(c2cc(=O)n(-c3ccccc3)c3ccccc23)CC1)Nc1nc(-c2ccccc2)cs1" . Is its growth below 50%?
Result: TRUE

Q: Just wondering, is growth of "O=C(O)c1cn(C2CC2)c2cc(N3CCN(C(=O)CN4C(=O)CSC4=O)CC3)c(F)cc2c1=O" below 50%?
Result: FALSE

Q: State whether 50% exceeds growth recorded for CNC1CCc2c(sc(NC(=O)c3ccc(C(C)(C)C)cc3)c2C(N)=O)C1 (centres undefined) .
Result: TRUE

Q: State whether 50% exceeds growth recorded for "COc1cc(OC)c(/C=C/S(=O)(=O)Cc2ccc(OC)c(NCC(=O)NO)c2)c(OC)c1" .
Result: TRUE

Q: Hello, I'm reviewing records and need to know if growth of O=C1CCCC2=C1C(c1c[nH]c3ccc(Br)cc13)Cc1cc(Br)ccc1N2 (centres undefined) is below 50%. Could you check?
Result: TRUE

###

Tested on: OVCAR-8 ovarian
assay method text: NCI-60 one-dose screen, 48 h
stated conditions: 10 µM unless noted
About 83,000 compounds went through this panel and 20% of them were active in at least one assay; those are over-represented in the sample as a whole. Calls of active or inactive are those of the source. How the source made its calls: active means growth percent below 10; inactive means the rest.
Respond only with the outcome that fits, drawn from label 1 = active, label 0 = inactive

Past entries and their recorded results:
- compound: "COc1ccc(Cn2cc3c(c2-c2cc(OC)c(OC)c(OC)c2)CCc2c(CN4CCCC4)noc2-3)cc1"
  target system: "OVCAR-8 ovarian"
  answer label: "label 0"
- compound: "CC(=O)C1=C(C)NC(NNC(N)=S)=NC1c1ccccc1 (stereo not given)"
  target system: "OVCAR-8 ovarian"
  answer label: "label 0"
- compound: "COc1cc(OC)c(/C=C/S(=O)(=O)Cc2ccc(OC)c(NCC(=O)NO)c2)c(OC)c1"
  target system: "OVCAR-8 ovarian"
  answer label: "label 1"
- compound: "CCO/C=N/C1=C(C#N)C(c2ccc(OC)cc2)c2sc3c(C)cccc3c2O1 (stereo not given)"
  target system: "OVCAR-8 ovarian"
  answer label: "label 0"

Q: State the result this test recorded for "Cc1ccc(S(=O)(=O)NCCNc2nc(Nc3ccc(N4CCN(C)CC4)cc3)nc3ccsc23)cc1" .
Result: label 0

###

Item-by-item account of growth
System: HS 578T breast
assay method text: NCI-60 one-dose screen, 48 h (100 = growth as untreated, 0 = no growth, -100 = all killed)
stated conditions: 10 µM unless noted
The panel holds about 83,000 compounds, 20% with a hit somewhere; the sample as a whole holds those more often.
Numeric only. Scale: %

The following molecules have reported results that may help.
- molecule: "NS(=O)(=O)c1ccc(Nc2nc(SCc3ccccc3)nc3ccccc23)cc1"
  result value: 62.2
- molecule: "COc1ccccc1NCc1cccn1Cc1ccc(F)cc1"
  result value: 105
- molecule: "O=C(Cn1c(-c2ccccc2)nc2cc(Cl)c(Cl)cc21)N=Nc1c(O)[nH]c2ccc(Cl)cc12"
  result value: 81.3
- molecule: "CCN(CC)c1ccc(NC2=C(Cl)C(=O)c3nc(C)ccc3C2=O)cc1"
  result value: 65.4
- molecule: "C=CCn1c(SCC(=O)Nc2ccc(C(=O)/C=C/c3ccc(Cl)cc3)cc2)nnc1-c1c[nH]c2ccccc12"
  result value: 91.5

Q: Need growth, item CCNC(=O)N1CCc2cc(OC)c(OCCc3ccc(OC)cc3)cc2C1c1ccc([N+](=O)[O-])cc1C (configuration not stated)
Result: 0.838

Q: What value of growth has been reported for the following molecule? "CCOc1ccc(C(=O)Nc2ncc(Cc3ccc(F)cc3)s2)cc1"
Result: 1.23

Q: Entry "COc1cc(OC)c(S(N)(=O)=O)cc1C(=O)/C=C/c1ccc(Cl)cc1" has what growth?
Result: 13.2

Q: Form field: reported growth of "COC(=O)C[Se]C(=O)Cc1c(C)n(C(=O)c2ccc(Cl)cc2)c2ccc(OC)cc12"
Result: 29.8

Q: Field request: growth | item: COc1cc(/C=N/NC(=O)c2cn(C3CC3)c3c(OC)c(N4CC5CCCNC5C4)c(F)cc3c2=O)ccc1O (configuration not stated)
Result: 107

Q: Entry "CNC(=O)c1cc(Oc2ccc3nc(NC(=O)c4cc(N5CCOCC5)cc(C(F)(F)F)c4)sc3c2)ccn1" has what growth?
Result: 79.2

Q: Bench note: what growth did COc1c(N2CC3CCCNC3C2)c(F)cc2c(=O)c(C(=O)N/N=C/c3c[nH]c4ccccc34)cn(C3CC3)c12 (configuration not stated) show?
Result: 110

Q: Which growth is reported for this molecule? "CCc1cccc(NC(=O)CNc2cc(S(=O)(=O)N(C)C)cc(C)c2C)c1"
Result: 97.2

Q: Report growth for "ClC(Cl)c1nc(-c2ccco2)n2nc(-c3ccccc3)cc2n1" please.
Result: -2.15

Q: Query: growth; subject: "Cc1ccc(NC(=O)c2ccc(CN3CCN(C)CC3)cc2)cc1Oc1ccc(-c2[nH]nc3ncnc(N)c23)cc1"
Result: 82.8

Q: Find the recorded growth belonging to "Cn1ccnc1C(=O)/C=C/C=C/c1ccc(C(=O)Nc2ccc(F)cc2)cc1" and report it.
Result: 39.1

Q: // returns reported growth for input "COc1cc(Cn2cc3c(c2)-c2onc(CN4CCCC4)c2CC3)cc(OC)c1OC"
Result: 97.7
